All values here come from patent US20260174847A1.

# experimental protocol: SPR (Biocore T100) binding affinity to sLeC
# measurement context: Example 3, Table 7, mean
pKd: −log10 of the molar value.
experimental endpoint: pKd

| molecule | experimental endpoint | recorded result |
| --- | --- | --- |
| Clone 4765: Humanized IgG1 antibody, heavy chain variable region HvCh2 (SEQ ID NO: 2), light chain LiCh1 (SEQ ID NO: 5) (antibody, V domains shown) VH: EVQLVESGGGLVQPGGSLRLSCAASGFTFSTNAMSWVRQAPGKGLEWVARLRPKSDNYATYYADSVKGRFTISRDNSKNTLYLQMNSLRAEDTAVYYCVTGTGFWGQGTTLTVSS VL: DIVMTQSPDSLAVSLGERATINCKSSQSLLNSGNQKNYLTWYQQKPGQPPKLLIYWTSTRESGVPDRFSGSGSGTDFTLTISSLQAEDVAVYYCQNDYTSPYTFGQGTKLEIK | pKd | 3.51 |
